- tested.target: UniProtKB O15151
- Sequence (O15151 whole entry): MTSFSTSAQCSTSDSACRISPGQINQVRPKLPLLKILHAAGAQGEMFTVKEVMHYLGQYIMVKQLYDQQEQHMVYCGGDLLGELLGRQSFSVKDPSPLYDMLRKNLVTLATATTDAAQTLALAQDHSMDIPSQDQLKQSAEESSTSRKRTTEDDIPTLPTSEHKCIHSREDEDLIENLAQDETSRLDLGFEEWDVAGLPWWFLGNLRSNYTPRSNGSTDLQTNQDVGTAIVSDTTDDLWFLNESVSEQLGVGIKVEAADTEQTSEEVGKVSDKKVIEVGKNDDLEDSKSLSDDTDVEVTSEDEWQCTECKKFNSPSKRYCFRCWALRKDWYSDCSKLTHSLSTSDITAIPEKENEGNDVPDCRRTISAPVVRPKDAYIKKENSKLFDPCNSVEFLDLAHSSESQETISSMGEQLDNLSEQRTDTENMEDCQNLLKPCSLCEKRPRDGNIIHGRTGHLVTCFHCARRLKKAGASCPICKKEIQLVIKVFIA
- protocol: Inhibition of MDM4 in human SH-SY5Y cells assessed as reduction in MDM4 interaction with p53 after 10 mins by quantitative sandwich immune-enzymatic assay
observed.property: IC50 (nM)
# unit: nM | format: bare number

Asked: API: value(readout=IC50, system=UniProtKB O15151) for record CCOc1cc(/C=C2\C(=O)N(c3ccccc3)N=C2C)cc(Cl)c1OCC(=O)OC
Given back: 847

* * *

- tested.target: E3 ubiquitin-protein ligase Mdm2 (Homo sapiens)
- Sequence (Q00987 whole entry): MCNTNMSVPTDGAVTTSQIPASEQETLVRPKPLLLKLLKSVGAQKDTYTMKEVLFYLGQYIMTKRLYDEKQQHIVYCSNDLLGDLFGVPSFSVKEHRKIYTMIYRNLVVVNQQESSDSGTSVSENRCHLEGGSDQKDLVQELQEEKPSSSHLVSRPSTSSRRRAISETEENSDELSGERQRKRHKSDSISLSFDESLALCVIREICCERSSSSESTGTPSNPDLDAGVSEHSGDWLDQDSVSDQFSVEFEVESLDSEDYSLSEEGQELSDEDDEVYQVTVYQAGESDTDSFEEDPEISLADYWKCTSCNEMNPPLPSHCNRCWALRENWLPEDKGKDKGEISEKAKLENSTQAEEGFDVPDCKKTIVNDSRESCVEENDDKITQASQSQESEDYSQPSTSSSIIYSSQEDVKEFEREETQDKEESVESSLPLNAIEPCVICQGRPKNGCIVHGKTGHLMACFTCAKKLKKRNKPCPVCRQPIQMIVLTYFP
- protocol: Inhibition of MDM2 in human U87MG cells assessed as reduction in MDM2 interaction with p53 after 10 mins by quantitative sandwich immune-enzymatic assay
observed.property: IC50

Asked: Requested read-out: IC50. Entry: CCOc1cc(/C=C2\C(=O)N(c3ccccc3)N=C2C)cc(Cl)c1OCC(=O)OC
Given back: > 1 µM
